testedTarget: T1, PSMA Fab (006 PSMA Fab)
T1 construct: also called Anti-PSMA Fab; anti-PSMA Fab
methodSummary: phage binding ELISA; biotinylated PSMA Fab on neutravidin plate, clonal phage supernatant, anti-M13 HRP detection;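 further: wells were preincubated with blocking buffer either containing PSMA antigen or without it before crude phage supernatant was added, briefly incubated, then washed prior to detection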
Would you mind telling me the reported Phage binding ELISA signal, Anti-PSMA Fab of each entry?
When you answer, write just the number.

Item under review: NERFCEPAWMCHGF (Tested as clonal phage supernatant; not shown: fused to the pIII filament protein of the bacteriophage) [Phage-3925 (Peptide-180 library clone)] . Reported Phage binding ELISA signal, Anti-PSMA Fab?
0.977

Note, next up: WVRLCQPAWMCTGL (Tested as clonal phage supernatant; not shown: fused to the pIII filament protein of the bacteriophage) [Phage-3936 (Peptide-180 library clone)]
0.926

Note, next up: WDLLCSPPWMCAGM (Tested as clonal phage supernatant; not shown: fused to the pIII filament protein of the bacteriophage) [Phage-3928 (Peptide-180 library clone)]
0.971

Note, next up: SMQKCVPSWMCAGF (Tested as clonal phage supernatant; not shown: fused to the pIII filament protein of the bacteriophage) [Phage-3927 (Peptide-180 library clone)]
0.972

Note, next up: YTQACTPSWMCHGF (Tested as clonal phage supernatant; not shown: fused to the pIII filament protein of the bacteriophage) [Phage-3933 (Peptide-180 library clone)]
0.96

Note, next up: MQDFCKPLWMCSGF (Tested as clonal phage supernatant; not shown: fused to the pIII filament protein of the bacteriophage) [Phage-3938 (Peptide-180 library clone)]
0.921

Note, next up: VERFCEPAWMCIGL (Tested as clonal phage supernatant; not shown: fused to the pIII filament protein of the bacteriophage) [Phage-3926 (Peptide-180 library clone)]
0.972

Note, next up: DIVECRPRWMCDGF (Tested as clonal phage supernatant; not shown: fused to the pIII filament protein of the bacteriophage) [Phage-3934 (Peptide-180 library clone)]
0.936

Note, next up: LTPVCRPAWMCLEL (Tested as clonal phage supernatant; not shown: fused to the pIII filament protein of the bacteriophage) [Phage-3937 (Peptide-180 library clone)]
0.922

Note, next up: TWSICEPRWMCEGF (Tested as clonal phage supernatant; not shown: fused to the pIII filament protein of the bacteriophage) [Phage-3929 (Peptide-180 library clone)]
0.97
